These measurements were taken from patent US20200247894A1.

t1/2 by entry:
Target: T1, Macaca fascicularis IL2Rγ extracellular domain expressed with a C-terminal myc-myc-hexahistidine tag (Macaca fascicularis)
T1 construct: also called mfIL-2Rg-MMH; mfIL-2RG-MMH
T1 chain: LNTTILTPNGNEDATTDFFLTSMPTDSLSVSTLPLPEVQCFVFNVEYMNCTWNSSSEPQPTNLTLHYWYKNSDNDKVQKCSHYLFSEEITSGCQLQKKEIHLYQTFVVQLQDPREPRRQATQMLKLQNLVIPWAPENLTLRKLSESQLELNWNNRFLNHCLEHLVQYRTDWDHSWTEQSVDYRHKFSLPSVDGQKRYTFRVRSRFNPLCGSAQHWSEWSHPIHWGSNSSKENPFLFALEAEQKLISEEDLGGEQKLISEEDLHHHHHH
Assay: SPR Biacore 4000, mAb captured by anti-hFc, HBS-ET, 25C
Answer format reminder: number followed by unit.

The following binders have reported results that may help.
H4H12900P (antibody, human IgG4 S228P, kappa, V domains shown, anti-IL2Rγ monoclonal antibody expressed with human IgG4 Fc) VH: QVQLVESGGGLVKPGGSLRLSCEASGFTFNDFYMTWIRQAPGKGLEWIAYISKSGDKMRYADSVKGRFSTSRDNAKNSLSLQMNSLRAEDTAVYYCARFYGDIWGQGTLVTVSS VL: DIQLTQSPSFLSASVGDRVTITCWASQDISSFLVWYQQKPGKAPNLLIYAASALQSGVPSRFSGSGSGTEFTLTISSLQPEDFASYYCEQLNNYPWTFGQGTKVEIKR    34 min
H4H12889P (antibody, human IgG4 S228P, kappa, V domains shown, anti-IL2Rγ monoclonal antibody expressed with human IgG4 Fc; also called REGN7257) VH: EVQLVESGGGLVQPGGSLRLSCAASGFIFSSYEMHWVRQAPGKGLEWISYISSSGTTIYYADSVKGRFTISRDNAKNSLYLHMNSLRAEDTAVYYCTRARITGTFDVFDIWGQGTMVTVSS VL: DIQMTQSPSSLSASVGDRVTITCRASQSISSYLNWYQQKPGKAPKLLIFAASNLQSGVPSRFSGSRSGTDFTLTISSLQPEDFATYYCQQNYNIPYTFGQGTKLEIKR    29 min
H4H12858P (antibody, human IgG4 S228P, kappa, V domains shown, anti-IL2Rγ monoclonal antibody expressed with human IgG4 Fc; also called REGN9433) VH: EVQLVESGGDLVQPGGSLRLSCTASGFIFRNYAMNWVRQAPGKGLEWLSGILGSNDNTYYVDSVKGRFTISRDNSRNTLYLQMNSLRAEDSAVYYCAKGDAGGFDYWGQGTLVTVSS VL: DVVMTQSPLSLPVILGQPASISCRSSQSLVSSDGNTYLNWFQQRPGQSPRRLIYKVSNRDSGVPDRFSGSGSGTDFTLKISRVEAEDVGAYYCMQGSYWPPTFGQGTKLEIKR    43 min
H4H12884P (antibody, human IgG4 S228P, kappa, V domains shown, anti-IL2Rγ monoclonal antibody expressed with human IgG4 Fc) VH: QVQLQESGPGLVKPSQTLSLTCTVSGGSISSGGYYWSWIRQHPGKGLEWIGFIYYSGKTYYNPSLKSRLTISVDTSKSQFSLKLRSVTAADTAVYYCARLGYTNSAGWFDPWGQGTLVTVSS VL: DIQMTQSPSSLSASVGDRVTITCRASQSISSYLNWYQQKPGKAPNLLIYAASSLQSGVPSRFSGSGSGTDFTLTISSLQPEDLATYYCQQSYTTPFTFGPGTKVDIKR    10 min
H4H13541P (antibody, human IgG4 S228P, kappa, V domains shown, anti-IL2Rγ monoclonal antibody expressed with human IgG4 Fc) VH: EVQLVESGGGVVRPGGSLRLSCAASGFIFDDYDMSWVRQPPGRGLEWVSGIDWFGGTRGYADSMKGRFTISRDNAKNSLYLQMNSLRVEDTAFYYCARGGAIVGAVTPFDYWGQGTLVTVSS VL: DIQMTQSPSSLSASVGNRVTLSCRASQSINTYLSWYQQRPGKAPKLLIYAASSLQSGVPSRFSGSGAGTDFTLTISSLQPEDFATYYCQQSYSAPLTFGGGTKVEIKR    37 min

Inquiry: Entry H4H13538P (antibody, human IgG4 S228P, kappa, V domains shown, anti-IL2Rγ monoclonal antibody expressed with human IgG4 Fc) VH: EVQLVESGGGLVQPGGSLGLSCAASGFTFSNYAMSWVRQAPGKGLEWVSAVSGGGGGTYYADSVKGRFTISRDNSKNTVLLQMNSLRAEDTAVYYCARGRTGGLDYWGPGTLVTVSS VL: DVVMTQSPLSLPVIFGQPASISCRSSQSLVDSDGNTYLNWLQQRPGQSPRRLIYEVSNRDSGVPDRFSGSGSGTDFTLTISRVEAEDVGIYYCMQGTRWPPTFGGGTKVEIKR has what t1/2?
Reply text: 38 min

Inquiry: Item under review: H4H12890P (antibody, human IgG4 S228P, kappa, V domains shown, anti-IL2Rγ monoclonal antibody expressed with human IgG4 Fc) VH: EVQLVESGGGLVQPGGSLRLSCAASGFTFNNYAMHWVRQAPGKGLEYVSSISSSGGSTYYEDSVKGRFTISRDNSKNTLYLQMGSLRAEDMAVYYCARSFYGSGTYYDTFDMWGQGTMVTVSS VL: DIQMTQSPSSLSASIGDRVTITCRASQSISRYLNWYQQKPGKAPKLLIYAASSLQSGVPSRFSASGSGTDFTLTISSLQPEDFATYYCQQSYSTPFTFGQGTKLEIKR . Reported t1/2?
Reply text: 37 min

Inquiry: Name the reported t1/2 value associated with the binder H4H12871P (antibody, human IgG4 S228P, kappa, V domains shown, anti-IL2Rγ monoclonal antibody expressed with human IgG4 Fc; also called REGN9434) VH: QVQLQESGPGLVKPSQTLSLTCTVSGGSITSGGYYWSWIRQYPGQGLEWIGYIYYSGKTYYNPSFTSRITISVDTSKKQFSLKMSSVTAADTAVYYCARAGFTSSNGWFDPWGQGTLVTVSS VL: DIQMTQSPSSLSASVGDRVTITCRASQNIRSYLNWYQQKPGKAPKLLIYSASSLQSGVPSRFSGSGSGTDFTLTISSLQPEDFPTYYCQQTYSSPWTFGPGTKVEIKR
Reply text: 13 min

Inquiry: t1/2 for H4H12886P (antibody, human IgG4 S228P, kappa, V domains shown, anti-IL2Rγ monoclonal antibody expressed with human IgG4 Fc) VH: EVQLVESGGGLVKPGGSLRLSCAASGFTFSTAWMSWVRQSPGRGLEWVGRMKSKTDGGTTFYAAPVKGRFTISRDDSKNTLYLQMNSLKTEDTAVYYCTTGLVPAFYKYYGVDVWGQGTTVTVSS VL: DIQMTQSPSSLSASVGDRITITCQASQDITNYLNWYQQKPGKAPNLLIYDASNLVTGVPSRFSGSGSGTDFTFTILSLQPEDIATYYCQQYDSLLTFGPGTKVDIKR ?
Reply text: 43 min

Inquiry: Returns the measured t1/2 for the input binder. Input: H4H12863P (antibody, human IgG4 S228P, kappa, V domains shown, anti-IL2Rγ monoclonal antibody expressed with human IgG4 Fc) VH: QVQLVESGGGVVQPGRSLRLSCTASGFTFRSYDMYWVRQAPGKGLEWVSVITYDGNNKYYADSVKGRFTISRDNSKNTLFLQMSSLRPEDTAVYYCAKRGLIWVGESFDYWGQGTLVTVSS VL: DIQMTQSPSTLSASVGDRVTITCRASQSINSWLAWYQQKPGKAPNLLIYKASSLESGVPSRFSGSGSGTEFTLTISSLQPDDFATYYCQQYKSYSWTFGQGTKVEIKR
Reply text: 32 min

Inquiry: For the binder H4H12899P (antibody, human IgG4 S228P, kappa, V domains shown, anti-IL2Rγ monoclonal antibody expressed with human IgG4 Fc) VH: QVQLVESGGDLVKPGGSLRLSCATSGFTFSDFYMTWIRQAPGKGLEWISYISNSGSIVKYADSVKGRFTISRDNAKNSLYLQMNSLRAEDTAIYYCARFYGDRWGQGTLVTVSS VL: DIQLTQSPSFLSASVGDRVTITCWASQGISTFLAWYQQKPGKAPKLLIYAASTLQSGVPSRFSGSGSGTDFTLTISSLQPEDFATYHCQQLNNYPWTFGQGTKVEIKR , what t1/2 is on record?
Reply text: 28 min
